# Tested on: Staphylococcus aureus
# Procedure details: Antimicrobial activity against Staphylococcus aureus 4 constitutively expressing ermA after 20 hrs by agar dilution method
# Format: functional
Attribute measured: MIC

Consider the following illustrative entries.
smiles_structure=CCOC(=O)[C@H]1[C@H](C)O[C@@H](O[C@H]2[C@H](N(C)C)[C@@H](O)[C@H](O[C@H]3[C@@H](CC=O)C[C@@H](C)[C@@H](OC(C)=O)CN(CCCCc4ccccc4)CCNC(=O)C[C@@H](OC(=O)CC)[C@@H]3OC)O[C@@H]2C)C[C@@]1(C)OC(C)=O attribute_measured=MIC result="> 128 µg/mL"
smiles_structure=CCOC(=O)[C@H]1[C@H](C)O[C@@H](O[C@H]2[C@H](N(C)C)[C@@H](O)[C@H](O[C@H]3[C@@H](CC=O)C[C@@H](C)[C@@H](O)CN(CCCCc4ccccc4)CCCCNC(=O)C[C@@H](OC(=O)CC)[C@@H]3OC)O[C@@H]2C)C[C@@]1(C)OC(C)=O attribute_measured=MIC result="> 128 µg/mL"
smiles_structure=CCOC(=O)[C@H]1[C@H](C)O[C@@H](O[C@H]2[C@H](N(C)C)[C@@H](O)[C@H](O[C@H]3[C@@H](CC=O)C[C@@H](C)[C@@H](O)CN(C)CCC[C@H](C/C=C/c4ccc5ccccc5c4)OC(=O)C[C@@H](OC(=O)CC)[C@@H]3OC)O[C@@H]2C)C[C@@]1(C)O attribute_measured=MIC result="64 µg/mL"

Suppose we examine the compound CCOC(=O)[C@H]1[C@H](C)O[C@@H](O[C@H]2[C@H](N(C)C)[C@@H](O)[C@H](O[C@H]3[C@@H](CC=O)C[C@@H](C)[C@@H](O)CN(C)CCC[C@H](C/C=C/c4ccnc5ccccc45)OC(=O)C[C@@H](OC(=O)CC)[C@@H]3OC)O[C@@H]2C)C[C@@]1(C)O ; what MIC value has been reported?
> 128 µg/mL

====

# Tested on: Staphylococcus aureus
# Procedure details: Antimicrobial activity against Staphylococcus aureus 4 constitutively expressing ermA after 20 hrs by agar dilution method
# Type: functional
Attribute measured: MIC

molecule=CCOC(=O)[C@H]1[C@H](C)O[C@@H](O[C@H]2[C@H](N(C)C)[C@@H](O)[C@H](O[C@H]3[C@@H](CC=O)C[C@@H](C)[C@@H](O)CN(C)CCC[C@H](C/C=C/c4cccnc4)OC(=O)C[C@@H](OC(=O)CC)[C@@H]3OC)O[C@@H]2C)C[C@@]1(C)O result="> 128 mg/L"
molecule=CCOC(=O)[C@H]1[C@H](C)O[C@@H](O[C@H]2[C@H](N(C)C)[C@@H](O)[C@H](O[C@H]3[C@@H](CC=O)C[C@@H](C)[C@@H](OC(C)=O)CN(CCCCc4ccccc4)CCN(C)C(=O)C[C@@H](OC(=O)CC)[C@@H]3OC)O[C@@H]2C)C[C@@]1(C)OC(C)=O result="> 128 mg/L"
molecule="CCOC(=O)[C@H]1[C@H](C)O[C@@H](O[C@H]2[C@H](N(C)C)[C@@H](O)[C@H](O[C@H]3[C@@H](CC=O)C[C@@H](C)[C@@H](O)CN(C)CCC(CCCc4ccnc5ccccc45)NC(=O)C[C@@H](OC(=O)CC)[C@@H]3OC)O[C@@H]2C)C[C@@]1(C)O (stereo in doubt; form 1)" result="> 128 mg/L"

// each molecule listed below needs its MIC
1. CCOC(=O)[C@H]1[C@H](C)O[C@@H](O[C@H]2[C@H](N(C)C)[C@@H](O)[C@H](O[C@H]3[C@@H](CC=O)C[C@@H](C)[C@@H](O)CN(C)CCC[C@H](CCCc4ccnc5ccccc45)OC(=O)C[C@@H](OC(=O)CC)[C@@H]3OC)O[C@@H]2C)C[C@@]1(C)O
2. CCOC(=O)[C@H]1[C@H](C)O[C@@H](O[C@H]2[C@H](N(C)C)[C@@H](O)[C@H](O[C@H]3[C@@H](CC=O)C[C@@H](C)[C@@H](OC(C)=O)CN(CCCCc4ccccc4)CCCNC(=O)C[C@@H](OC(=O)CC)[C@@H]3OC)O[C@@H]2C)C[C@@]1(C)OC(C)=O
3. CCOC(=O)[C@H]1[C@H](C)O[C@@H](O[C@H]2[C@H](N(C)C)[C@@H](O)[C@H](O[C@H]3[C@@H](CC=O)C[C@@H](C)[C@@H](O)CN(C)CCC(/C=C/Cc4ccnc5ccccc45)NC(=O)C[C@@H](OC(=O)CC)[C@@H]3OC)O[C@@H]2C)C[C@@]1(C)O (mixture of isomers)
4. CCOC(=O)[C@H]1[C@H](C)O[C@@H](O[C@H]2[C@H](N(C)C)[C@@H](O)[C@H](O[C@H]3[C@@H](CC=O)C[C@@H](C)[C@@H](O)CN(C)CCC[C@H](C/C=C/c4cccc5ccccc45)OC(=O)C[C@@H](OC(=O)CC)[C@@H]3OC)O[C@@H]2C)C[C@@]1(C)O

1: > 128 mg/L; 2: > 128 mg/L; 3: > 128 mg/L; 4: > 128 mg/L

====

Provide the reported MIC of each item.
# Test system: Staphylococcus aureus
# Procedure details: Antimicrobial activity against drug-susceptible Staphylococcus aureus 2 after 20 hrs by agar dilution method
# Assay type: functional
# Experimental conditions: Staphylococcus aureus, 20 h; read-out: MIC
Answers are plain numbers, in µg/mL.

compound=CCOC(=O)[C@H]1[C@H](C)O[C@@H](O[C@H]2[C@H](N(C)C)[C@@H](O)[C@H](O[C@H]3[C@@H](CC=O)C[C@@H](C)[C@@H](OC(C)=O)CN(CCCCc4ccccc4)CCC[C@@H](C)OC(=O)C[C@@H](OC(=O)CC)[C@@H]3OC)O[C@@H]2C)C[C@@]1(C)OC(C)=O attribute_measured=MIC readout_number=2
compound=CCC(=O)O[C@@H]1CC(=O)NCCCN(CCCc2ccnc3ccccc23)C[C@H](O)[C@H](C)C[C@H](CC=O)[C@H](O[C@@H]2O[C@H](C)[C@@H](O)[C@H](N(C)C)[C@H]2O)[C@H]1OC attribute_measured=MIC readout_number=32
compound=CCOC(=O)[C@H]1[C@H](C)O[C@@H](O[C@H]2[C@H](N(C)C)[C@@H](O)[C@H](O[C@H]3[C@@H](CC=O)C[C@@H](C)[C@@H](O)CN(C)CCC[C@@H](CCCc4ccnc5ccccc45)OC(=O)C[C@@H](OC(=O)CC)[C@@H]3OC)O[C@@H]2C)C[C@@]1(C)O attribute_measured=MIC readout_number=0.5

// next item, MIC requested
Suppose we examine the compound CCOC(=O)[C@H]1[C@H](C)O[C@@H](O[C@H]2[C@H](N(C)C)[C@@H](O)[C@H](O[C@H]3[C@@H](CC=O)C[C@@H](C)[C@@H](O)CN(C)CC(/C=C/Cc4cccc5cccnc45)CCOC(=O)C[C@@H](OC(=O)CC)[C@@H]3OC)O[C@@H]2C)C[C@]1(C)O (some centres undefined) ; what MIC value has been reported?
0.5

====

# System: Moraxella catarrhalis
# Procedure details: Antimicrobial activity against drug-susceptible Moraxella catarrhalis 1 after 20 hrs by agar dilution method
# Type: functional
Attribute measured: MIC
The answer should read as a number with its unit following.

molecule="CCOC(=O)[C@H]1[C@H](C)O[C@@H](O[C@H]2[C@H](N(C)C)[C@@H](O)[C@H](O[C@H]3[C@@H](CC=O)C[C@@H](C)[C@@H](O)CN(C)CCC(C/C=C/c4cnc5ccccc5c4)NC(=O)C[C@@H](OC(=O)CC)[C@@H]3OC)O[C@@H]2C)C[C@@]1(C)O (stereo in doubt; form 1)" result="2 µg/mL"

Suppose we examine the molecule CCOC(=O)[C@H]1[C@H](C)O[C@@H](O[C@H]2[C@H](N(C)C)[C@@H](O)[C@H](O[C@H]3[C@@H](CC=O)C[C@@H](C)[C@@H](O)CN(CCCCc4ccccc4)CCC(C)NC(=O)C[C@@H](OC(=O)CC)[C@@H]3OC)O[C@@H]2C)C[C@@]1(C)OC(C)=O (stereo in doubt; form 2) ; what MIC value has been reported?
0.13 µg/mL

====

# System: Streptococcus pneumoniae
# Procedure details: Antimicrobial activity against Streptococcus pneumoniae 6 constitutively expressing ermB after 20 hrs by agar dilution method
# Type: functional
# Experimental conditions: Streptococcus pneumoniae, 20 h; read-out: MIC
Attribute measured: MIC

molecule=CCOC(=O)[C@H]1[C@H](C)O[C@@H](O[C@H]2[C@H](N(C)C)[C@@H](O)[C@H](O[C@H]3[C@@H](CC=O)C[C@@H](C)[C@@H](O)CN(C)CCC[C@H](C/C=C/c4cccnc4)OC(=O)C[C@@H](OC(=O)CC)[C@@H]3OC)O[C@@H]2C)C[C@@]1(C)O result="> 128 µg/mL"
molecule=CCOC(=O)[C@H]1[C@H](C)O[C@@H](O[C@H]2[C@H](N(C)C)[C@@H](O)[C@H](O[C@H]3[C@@H](CC=O)C[C@@H](C)[C@@H](OC(C)=O)CN(CCCCc4ccccc4)CCCNC(=O)C[C@@H](OC(=O)CC)[C@@H]3OC)O[C@@H]2C)C[C@@]1(C)OC(C)=O result="> 128 µg/mL"
molecule=CCC(=O)O[C@@H]1CC(=O)O[C@H](C)C/C=C/C=C/[C@H](OC(C)=O)[C@H](C)C[C@H](CC=O)[C@H](O[C@@H]2O[C@H](C)[C@@H](O[C@H]3C[C@@](C)(OC(C)=O)[C@@H](OC(=O)CC)[C@H](C)O3)[C@H](N(C)C)[C@H]2O)[C@H]1OC result="> 128 µg/mL"
molecule="CCOC(=O)[C@H]1[C@H](C)O[C@@H](O[C@H]2[C@H](N(C)C)[C@@H](O)[C@H](O[C@H]3[C@@H](CC=O)C[C@@H](C)[C@@H](O)CN(C)CC(/C=C/Cc4ccc5ncccc5c4)CCOC(=O)C[C@@H](OC(=O)CC)[C@@H]3OC)O[C@@H]2C)C[C@@]1(C)O (some centres undefined)" result="128 µg/mL"
molecule=CCOC(=O)[C@H]1[C@H](C)O[C@@H](O[C@H]2[C@H](N(C)C)[C@@H](O)[C@H](O[C@H]3[C@@H](CC=O)C[C@@H](C)[C@@H](O)CN(CCCc4ccnc5ccccc45)CCCNC(=O)C[C@@H](OC(=O)CC)[C@@H]3OC)O[C@@H]2C)C[C@@]1(C)O result="> 128 µg/mL"
molecule=CCOC(=O)[C@H]1[C@H](C)O[C@@H](O[C@H]2[C@H](N(C)C)[C@@H](O)[C@H](O[C@H]3[C@@H](CC=O)C[C@@H](C)[C@@H](O)CN(C)CCC[C@@H](CCCc4ccnc5ccccc45)OC(=O)C[C@@H](OC(=O)CC)[C@@H]3OC)O[C@@H]2C)C[C@@]1(C)O result="> 128 µg/mL"
molecule=CCOC(=O)[C@H]1[C@H](C)O[C@@H](O[C@H]2[C@H](N(C)C)[C@@H](O)[C@H](O[C@H]3[C@@H](CC=O)C[C@@H](C)[C@@H](OC(C)=O)CN(CCCCc4ccccc4)CCN(C)C(=O)C[C@@H](OC(=O)CC)[C@@H]3OC)O[C@@H]2C)C[C@@]1(C)OC(C)=O result="> 128 µg/mL"
molecule=CCOC(=O)[C@H]1[C@H](C)O[C@@H](O[C@H]2[C@H](N(C)C)[C@@H](O)[C@H](O[C@H]3[C@@H](CC=O)C[C@@H](C)[C@@H](O)CN(C)CCC[C@H](CCCc4ccnc5ccccc45)OC(=O)C[C@@H](OC(=O)CC)[C@@H]3OC)O[C@@H]2C)C[C@@]1(C)O result="> 128 µg/mL"
molecule=CCOC(=O)[C@H]1[C@H](C)O[C@@H](O[C@H]2[C@H](N(C)C)[C@@H](O)[C@H](O[C@H]3[C@@H](CC=O)C[C@@H](C)[C@@H](OC(C)=O)CN(CCCCc4ccccc4)CCNC(=O)C[C@@H](OC(=O)CC)[C@@H]3OC)O[C@@H]2C)C[C@@]1(C)OC(C)=O result="> 128 µg/mL"
molecule="CCOC(=O)[C@H]1[C@H](C)O[C@@H](O[C@H]2[C@H](N(C)C)[C@@H](O)[C@H](O[C@H]3[C@@H](CC=O)C[C@@H](C)[C@@H](O)CN(C)CCC(C/C=C/c4ccnc5ccccc45)NC(=O)C[C@@H](OC(=O)CC)[C@@H]3OC)O[C@@H]2C)C[C@@]1(C)O (single isomer, unassigned)" result="> 128 µg/mL"

// each molecule listed below needs its MIC
1. CCOC(=O)[C@H]1[C@H](C)O[C@@H](O[C@H]2[C@H](N(C)C)[C@@H](O)[C@H](O[C@H]3[C@@H](CC=O)C[C@@H](C)[C@@H](O)CN(C)CC(/C=C/Cc4cccc5cccnc45)CCOC(=O)C[C@@H](OC(=O)CC)[C@@H]3OC)O[C@@H]2C)C[C@]1(C)O (some centres undefined)
2. CCOC(=O)[C@H]1[C@H](C)O[C@@H](O[C@H]2[C@H](N(C)C)[C@@H](O)[C@H](O[C@H]3[C@@H](CC=O)C[C@@H](C)[C@@H](O)CN(C)CCC[C@H](C/C=C/c4cnc5ccccc5c4)OC(=O)C[C@@H](OC(=O)CC)[C@@H]3OC)O[C@@H]2C)C[C@@]1(C)O
3. CCOC(=O)[C@H]1[C@H](C)O[C@@H](O[C@H]2[C@H](N(C)C)[C@@H](O)[C@H](O[C@H]3[C@@H](CC=O)C[C@@H](C)[C@@H](O)CN(CCCCc4ccccc4)CC[C@@H](C)OC(=O)C[C@@H](OC(=O)CC)[C@@H]3OC)O[C@@H]2C)C[C@@]1(C)OC(C)=O
4. CCOC(=O)[C@H]1[C@H](C)O[C@@H](O[C@H]2[C@H](N(C)C)[C@@H](O)[C@H](O[C@H]3[C@@H](CC=O)C[C@@H](C)[C@@H](O)CN(C)CCC[C@H](C/C=C/c4ccnc5ccccc45)OC(=O)C[C@@H](OC(=O)CC)[C@@H]3OC)O[C@@H]2C)C[C@@]1(C)O

1. 128 µg/mL
2. 128 µg/mL
3. > 128 µg/mL
4. > 128 µg/mL
